Hi there, I'd appreciate the recorded inhibition for every entry that follows.
assay: inhibitors of Chlamydomonas gravitaxis, primary screen, whole organism, Chlamydomonas reinhardtii, WT vs cilia-less mutant, absorbance, 96-well (AID 463189); details: OD600 absorbance, 2 days, at 10 µM, stronger effect = higher value;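 also: 0% = wild type cc124 cells in DMSO and 100% = ciliumless bld1 mutant cells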
# output: bare number, implied unit %

In one line, give reported inhibition of the entry Cn1cccc1/C=N/n1cnnc1 .
-1.85

Give recorded inhibition. CCCOC(=O)CSC1=C(C#N)C(c2ccc3c(c2)OCO3)CC(=O)N1 (stereo unspecified)
6.85

Fill in inhibition for record CCN(CC)CCN1C(=O)C(O)=C(C(C)=O)C1c1ccc(OC)c(OC)c1 (stereo unspecified)
2.41

Return value of inhibition for input C=CCN1C(=O)CC(C(=O)NC)SC1=Nc1ccc(C(=O)OCC)cc1 (stereo unspecified) , no commentary.
6.38

Note down inhibition recorded for O=c1[nH]cnc2c1cnn2Cc1ccccc1
-9.15

Identify the reported inhibition for the following entry. Nc1c2c(nc3ccccc13)N(C1CCCCC1)CC2
62.2

---

test: inhibitors of Sendai virus-induced IRF3 signaling, primary screen, TLR/RLR signaling modifier project, cell-based, Sendai virus stimulus, luciferase, 10K MLSCN set (AID 602276); conditions: HEK293 RL24 IRF3 luciferase reporter, at 10 µM, stronger effect = higher value;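 also: firefly luciferase from ISG56 promoter only with Renilla not read in this screen; 0% = Sendai virus plus DMSO and 100% = medium plus DMSO without virus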
METRIC: inhibition (%)
Write the number in % without appending the unit.

Retrieve inhibition measured for O=C(c1ccc(CSCc2ccccc2F)o1)N1CCN(c2ccc(N3CCOCC3)nn2)CC1 and print it.
4.73

Identify the reported inhibition for the following entry. CN(C(=O)C1CCCO1)c1nnc(-c2ccncc2)s1 (stereo not given)
-12

Give recorded inhibition. CCOCCCNC(=O)CN1CCN(Cc2ccccc2C)C1=O
-1.33

Determine from records and report inhibition for CN(C)CCN1C(=O)c2oc3ccc(Cl)cc3c(=O)c2C1c1cccc(Br)c1 (stereo not given)
17.2

Return inhibition for the following compound: CC(C)(C)c1nnc(NC(=O)C2CCN(c3ncccn3)CC2)s1
5.09

Note inhibition for the compound shown: CCCc1cc(C(=O)Nc2ccc(C(C)=O)cc2)no1
15.4

Report measured inhibition; entry is Cc1[nH]nc2c1C(c1ccc(F)cc1)C1=C(CC(C)(C)CC1=O)N2 (stereo not given)
10.5

Tell us which inhibition value is on record for O=C(CNc1ccc(Oc2ccccc2)cc1)N1CCOCC1
18.1

Annotate the compound COc1cc(NC(=O)c2cc(CC(C)C)on2)c(OC)cc1Cl with its measured inhibition.
10.7

State its inhibition for this compound: c1ccc2c(c1)CNC1(CCCCC1)C2
13.3

Recall and state the measured inhibition for CCOc1ccc(NS(=O)(=O)c2ccc(OCC(=O)N3CCCC3)cc2)cc1 .
8.25

Indicate its recorded inhibition; the compound in question is O=C(c1csc2ccccc12)n1cccn1
19

Name the recorded inhibition of the compound listed here: C=COCCNC(=O)Nc1ccc(Cl)c(Cl)c1
-35.4

Provide one value: measured inhibition of N#Cc1cc2c(nc1SCC(=O)N1CCCCC1)CCCC2
-26.1

Respond only with inhibition recorded for COC(=O)C1(C(F)(F)F)N=C2Sc3ccccc3N2C(N2CCOCC2)=N1 (stereo not given)
11.6

Could you please provide reported inhibition for COC(=O)c1ccccc1NC(=O)C1CC=CCC1C(=O)O (stereo not given) ? Thanks!
16.2

Name the recorded inhibition of the item Cc1cc(C)n(-c2nc(C)nc3sc4c(c23)CCC(C)C4)n1 (stereo not given) in your answer.
-1.01

For the compound O=C(CSc1nccn1Cc1ccccc1)Nc1nccs1 , give its reported inhibition.
-30.1

Please give measured inhibition of the following entry: CCCn1cc(C(CC(=O)O)C(=O)O)c2ccccc21 (stereo not given)
13.9

Look up and state reported inhibition for CC1(C)OC(=O)C(=CNC(CCC(N)=O)C(=O)O)C(=O)O1 (stereo not given)
-19

Hello, please tell me recorded inhibition for this one: CC(C)Cn1c(=O)c(C(=O)Nc2ccccc2S(N)(=O)=O)c(O)c2ccccc21
-1.36

Supply recorded inhibition for CCCn1c(O)c(CN2CCCC(C)C2)c(C)c(C#N)c1=O (stereo not given) here.
13.3

Look up and report measured inhibition for this entry: O=S1(=O)CC(N2CCOCC2)c2ccccc21 (stereo not given)
7.8

Provide inhibition value for the following compound: CC(O)c1cc2c(cc1NC(=O)c1cnn3c1NC(c1ccco1)CC3C(F)(F)F)OCO2 (stereo not given)
9.47

Look up and state reported inhibition for Cn1c(SCC(=O)O)nnc1C1CCCCC1
-46.6

Supply recorded inhibition for O=C(COC(=O)C1CC(=O)N(c2ccccc2)C1)c1ccccc1 (stereo not given) here.
-13.2

Give the measured inhibition for Cc1cc(C)c(OCC(=O)Nc2ccc3c(c2)OCO3)cc1C
-6.64

Supply reported inhibition belonging to this compound: Cc1cc(Cl)ccc1OCCCC(=O)NO
9.52

Identify measured inhibition corresponding to Cc1onc(-c2ccccc2Cl)c1C(=O)Nc1cccnc1
0.844

Kindly indicate its recorded inhibition. Item: Cc1nc2ccccc2c2oc(C(=O)NCCCN3CCCC3=O)cc12
10.3

Supply recorded inhibition for CCCCOc1ccccc1C1C(C(N)=O)=C(C)Nc2nnnn21 (stereo not given) here.
17.4

Specify reported inhibition for the compound shown: COc1ccc(-c2noc(-c3ccccc3C(=O)NCc3ccco3)n2)cc1
-8.85

Write down inhibition measured for item CC(=O)c1ccc(NC(=O)C2CCN(S(=O)(=O)c3cccc4cccnc34)CC2)cc1
14.2

Output measured inhibition for this item: O=C(O)CCc1ccc(-c2cccs2)o1
16.2

Kindly indicate its recorded inhibition. Item: CCCCNC(=O)OCCNC(=O)NC
7.22

---

experiment: inhibitors of TNFa-induced NFkB p65 translocation, primary screen, imaging, HUVEC, MLSMR starter and 10KST1 sets (AID 438); details: HUVEC TNFa-induced p65 nuclear translocation; at 2 µM, stronger effect = higher value, 0% TNFa-plus-vehicle, 100% no-TNFa wells;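 also: compound added about 3h40 before a 20 min TNFalpha stimulation; signal is the nuclear over cytoplasmic p65 intensity ratio per well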
METRIC: inhibition (%)
Response body: numeric value in %, unit text excluded.

Output inhibition of O=c1c2c3c(sc2n2cnnc2n1C1CCCCC1)CCC3
-3.6

Please indicate inhibition recorded for Cc1ccc(-n2nnnc2SCC(=O)c2cc(C)n(-c3cc(C)on3)c2C)cc1
-12.4

Quick one: give measured inhibition for CC(C)OC(=O)c1c2nc3ccccc3nc2n2c1[nH]c(=O)c1ccccc12
4

Please give the documented inhibition of CCc1cc(=O)oc2cc(OC(C)=O)cc(OC(C)=O)c12
-6

Please look at this compound and report its inhibition: CC1(C)NC(=O)N(CC(O)COc2cccc(F)c2)C1=O (centres undefined)
-1.1

Given the compound Cc1cc(Cl)ccc1OCCCC(=O)NO , write its reported inhibition.
0.8

Identify inhibition associated with the compound Cc1ccc(-c2noc(CCC(=O)NCCc3ccccc3Cl)n2)cc1
-1.2

Please list inhibition recorded for the compound CCOC(=O)N1CCN(C2OC(=O)c3ccccc32)CC1 (centres undefined)
0.8

Supply inhibition value. Item: Cc1cc(=O)oc2c(CN3CCC(C)CC3)c(O)c(Cl)cc12
-6.9

Identify measured inhibition associated with CN(Cc1ccccc1)C(=O)CNC(=O)Cn1cnc2ccccc2c1=O
1.1

Tell us which inhibition value is on record for CCCn1nnc(NC(=O)c2cc(Br)cc(Br)c2OC)n1
-1.7

Name the recorded inhibition of the item O=C(O)c1ccc(C2CCCCC2)cn1 in your answer.
0.5

Entry O=C(O)CCc1nn2cc(-c3ccccc3)nc2[nH]c1=O needs its inhibition filled in; supply it.
3

Dear colleague, please send me the reported inhibition for CCN=C1SC(CC(=O)Nc2ccccc2)C(=O)N1CC (centres undefined) when you can.
3.4

State, in one line, measured inhibition of COc1ccc2cc(C#N)c(SCC(=O)N3CCCC3)nc2c1
-2.1

Give reported inhibition value for CCc1c(C)c2cc(Cl)c(O)c(CN3CCCCC3)c2oc1=O
-3.5

# return recorded inhibition for input CN(CCc1ccccn1)C(=O)CCNC(=O)Cn1cnc2ccccc2c1=O
-7.4

Provide one value: measured inhibition of CCN1CCN(C(CNC(=O)c2ccc3c(c2)OCO3)c2cccnc2)CC1 (centres undefined)
-13.5

Fill in reported inhibition for this entry: CNC(=O)c1nnn(Cc2ccccc2)c1NC(C)=O
-14.7

---

assay: inhibitors of mutant huntingtin aggregation, primary screen, imaging, exon1htt(103Q)mCFP cells, high-content imaging (AID 483); details: exon1htt(103Q)mCFP cell line, aggregate imaging, at 2 µM; measured here: cell count, toxicity;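 also: compound exposure lasted 3 days before fixation; percent of the per-plate median nuclei count of sample wells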
METRIC: nuclei count (%)
// note: answer is a bare numeric in %

Return value of nuclei count for input CCOC(=O)c1[nH]nc(N)c1NC(=O)c1ccc(Cl)cc1Cl , no commentary.
99.2

Supply recorded nuclei count for COc1cccc2cc(C(=O)N3CCN(c4ccc(C)cc4C)CC3)c(=O)oc12 here.
116

Look up nuclei count of CCOC(=O)CSc1nnc([C@H](CC(C)C)NC(=O)OC(C)(C)C)o1 and report it.
81.4

Please give measured nuclei count of the following entry: Nn1c(Cc2ccccc2F)nnc1SCC(=O)N1CC(=O)Nc2ccccc21
107

Answer with reported nuclei count of CC(=O)N(C(C)=O)c1cccc2c(N(C(C)=O)C(C)=O)cccc12
44.9

Using known records, supply nuclei count for CCn1c(NC(=O)c2cccc(Cn3cc(Cl)cn3)c2)nc2ccccc21
81.8

Tell me measured nuclei count for O=c1[nH]c(N2CCc3ccccc32)nc2c1CCCC2 please.
68.4

Answer with the recorded nuclei count of COc1ccccc1-c1nnc(NC(=O)c2ccc(S(=O)(=O)N(C)Cc3ccccc3)cc2)o1 only.
92.8

Note down nuclei count recorded for O=C(O)C1C2C=CC3(CN(C4CCCC4)C(=O)C13)O2 (stereo unspecified)
69.2

Consider the molecule Cc1csc2nc(CSc3ccc(Cl)cc3)cn12 and give its recorded nuclei count.
80.6

Entry Cc1ccc(C)c(N2CCN(C(=O)c3cc4ccccn4n3)CC2)c1 needs its nuclei count filled in; supply it.
103

Dear colleague, please send me the reported nuclei count for CCOC(=O)N1CCC(NC(=O)Cn2c3c(c(-c4ccccc4Cl)cc2=O)CCC3)CC1 when you can.
98.3

Identify the reported nuclei count for the following entry. O=C(Nc1cccnc1)Nc1ccccn1
106

Give reported nuclei count value for CC(=O)N1CCN(C(=O)COc2ccc(Br)cc2)CC1
93.7

Quote nuclei count reported for O=C(NCCc1c[nH]c2ccccc12)c1cnc2n(c1=O)CCS2 please.
103

Specify reported nuclei count for the molecule shown: Cc1c(C(=O)Nc2ccncc2)oc2c1C(=O)CC(C)(C)C2
85.4

Identify measured nuclei count associated with CCOCCCNC(=O)C1CC(=O)N(C2CCCC2)C1 (stereo unspecified)
103

Fill in nuclei count for record CCOC(=O)C1CCN(c2c(Nc3ccc4c(c3)OCCO4)c(=O)c2=O)CC1
106

Answer with the recorded nuclei count for the molecule listed here: CCN(CC)CCN1C(=O)C(=O)/C(=C(/O)c2c(C)[nH]c(C(=O)OC)c2C)C1c1ccccc1OC (stereo unspecified)
109

Return nuclei count (reported value) for this molecule: CCOc1ccccc1N1Cc2cc(C)c(C)cc2C1
110

Indicate its recorded nuclei count; the molecule in question is COC(=O)c1cn(C(=O)c2ccc(Br)o2)c2ccccc12
97.7

Supply measured nuclei count of COC(=O)c1cc(S(=O)(=O)N2CCC(C)CC2)ccc1F in your reply.
112

Using the record for CC1NC(=O)NC1CCCCCC(=O)NCCc1ccccc1 (stereo unspecified) , state its measured nuclei count.
110

Give the measured nuclei count for Cc1occc1C(=O)Nc1nnc(C2CCCCC2)s1
108

For the molecule CCCCOC(=O)c1[nH]c2c(c1C)C(=O)CC(c1cc(OC)c(OC)c(OC)c1)C2 (stereo unspecified) , give its measured nuclei count value.
79.6

Please report the measured nuclei count for CC(C)(C)C(=O)CNS(=O)(=O)c1ccc(S(=O)(=O)NC2CCCC2)cc1
113

Name the recorded nuclei count of the molecule listed here: O=C(Nc1ncc(Br)s1)C1CCCN1S(=O)(=O)c1cccc2cccnc12 (stereo unspecified)
88.6

Give the measured nuclei count for CCc1ccc(N2CC(C(=O)OCC(=O)NC3CCS(=O)(=O)C3)CC2=O)cc1 (stereo unspecified)
85.2

For the molecule Cc1cccc2c(=O)oc(-c3ccc4c(c3)C(=O)N(CC3CCCO3)C4=O)nc12 (stereo unspecified) , give its measured nuclei count value.
107

Entry c1ccc(-c2nn3c(Cn4nnc5ccccc54)nnc3s2)nc1 needs its nuclei count filled in; supply it.
103

Give the reported value of nuclei count for this record: COc1ccccc1CNS(=O)(=O)c1ccc(NC(C)=O)cc1
110

Identify the reported nuclei count for the following entry. O=C(Nc1ccccc1C(F)(F)F)c1cc(S(=O)(=O)N2CCOCC2)ccc1F
62.3

Annotate the molecule COc1cccc(/C=N/n2c(C)nc3ccccc32)c1OC with its measured nuclei count.
84.3

Output measured nuclei count for this item: O=C(Oc1cc2oc(=O)c3c(c2cc1Cl)CCCC3)c1ccco1
101

Complete the entry with nuclei count for CCOc1ccc(CNc2ccc3c(c2)ncn3C)cc1
72.5

Give nuclei count for O=C(Nc1ccc(CN2CCOCC2)cc1)c1cc2ccccn2n1
99.9

Report nuclei count for Cc1ccc(CSC2=NCCN2C(=O)c2ccco2)cc1
106

Identify the reported nuclei count for the following entry. CC1CCN(S(=O)(=O)c2cn(CC(=O)N3CCN(C)CC3)c(=O)c3ccccc23)CC1
91.6

Dear colleague, please send me the reported nuclei count for N#CC1=C(SCC(=O)NC23CC4CC(CC(C4)C2)C3)NC(=O)C(C#N)C12CCCCC2 (stereo unspecified) when you can.
100

Check the records and state nuclei count for CC(=O)Nc1ccc(S(=O)(=O)Nc2nc3ccccc3nc2N2CCCC2)cc1
106

Provide one value: measured nuclei count of COc1ccccc1N1C(=O)CCC1(C#N)c1ccccc1 (stereo unspecified)
87.7
